Each item that follows carries a reported CRF2R Emax %.
target entity: T1, CRF2R; further: reference of the scale not given here
T1 sequence (Q13324 whole entry, species assumed, looked up): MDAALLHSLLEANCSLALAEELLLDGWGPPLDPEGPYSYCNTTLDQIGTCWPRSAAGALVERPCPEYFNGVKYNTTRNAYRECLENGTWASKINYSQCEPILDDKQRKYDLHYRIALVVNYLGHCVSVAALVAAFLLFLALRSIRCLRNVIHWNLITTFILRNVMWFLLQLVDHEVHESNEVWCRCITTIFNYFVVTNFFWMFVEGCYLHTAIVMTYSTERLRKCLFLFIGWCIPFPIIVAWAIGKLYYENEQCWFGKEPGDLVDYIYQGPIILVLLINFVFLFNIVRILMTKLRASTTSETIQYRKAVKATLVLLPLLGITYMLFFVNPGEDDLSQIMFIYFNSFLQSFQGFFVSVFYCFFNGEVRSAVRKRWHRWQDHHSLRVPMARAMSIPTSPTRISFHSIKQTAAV
experiment: cell-based or functional assay

# binder, CRF2R Emax % [%]
records = [
    ("ZGPPISIDLPLYLLRKMIEIEKQEKEKQQAANNALLLDTI (C-terminal amide) [SEQ ID NO 244]", 98),
    ("ZGPPISIDLPFQLLRKVIEIEKQEKEKQQAANNALLLDTI (C-terminal amide) [SEQ ID NO 350]", 98.1),
    ("ZGPPISIDLPYALLRKMIEIEKQEKEKQQAANNRLLLDTI (C-terminal amide) [SEQ ID NO 309]", 99.9),
]

// provenance: patent US20030148958A1
